System: Pseudomonas aeruginosa MK1184
Assay: MIC, NCCLS broth microdilution
Format: cell-based
Conditions: MIC of antibiotic compound 1 with the labelled bridged monobactam of formula II and clavulanate, 4 mg/L each
measure: MIC of antibiotic at fixed inhibitor concentration (4 mg/L)

• CCC(=O)c1cc[n+](CC(=O)N2CC[C@@H]3[C@H]2C(=O)N3S(=O)(=O)[O-])cc1 [Compound 117] = 16
• O=C(C[n+]1cccc(Cc2ccccc2)c1)N1CC[C@@H]2[C@H]1C(=O)N2S(=O)(=O)[O-] [Compound 123] = 32
• Cc1cc[n+](CC(=O)N2CC[C@@H]3[C@H]2C(=O)N3S(=O)(=O)[O-])cc1C [Compound 121] = 16
